Where do these numbers come from? They come from patent US9975854B2.

target: μ-opioid receptor (Homo sapiens (Human)); test: μ-opioid receptor [35S]GTPγS functional assay, HEK-293 or CHO cells; assay type: biochemical; conditions: HEK-293 or CHO cells; read-out: GTPγS μ EC50
# EC50 per record follows

structure	unit_symbol	EC50
CN1CC[C@@]2(C)c3cc(O)ccc3C[C@@H]1[C@@H]2N(C)C(=O)Cc1ccc(S(C)(=O)=O)cc1	nM	182
CN1CC[C@@]2(C)c3cc(O)ccc3C[C@@H]1[C@H]2NCCC1CCCCC1	nM	92.9
CCn1c(NC(=O)N(C)[C@H]2[C@H]3Cc4ccc(OC)cc4[C@]2(C)CCN3C)nc2ccccc21	nM	851
CCn1c(NC(=O)N(C)[C@H]2[C@H]3Cc4ccc(O)cc4[C@]2(C)CCN3C)nc2ccccc21	nM	14.1
CN1CC[C@@]2(C)c3cc(O)ccc3C[C@@H]1[C@@H]2NCCC1CCCCC1	nM	1270
CN1CC[C@@]2(C)c3cc(O)ccc3C[C@@H]1[C@H]2NCCC1(O)CCCCC1	nM	223
CN1CC[C@@]2(C)c3cc(O)ccc3C[C@@H]1[C@H]2NCCCc1ccccc1	nM	649
CN1CC[C@]2(C)c3cc(O)ccc3CC1[C@@H]2C(=O)N1CCCCC1	nM	4090
